Entry source: ChEMBL document CHEMBL1157539

System: HepG2
experimentNotes: GSK_TCMDC: Percent inhibition of human HepG2 cell line. Test compounds present at 10uM.
Type: functional
Rule: Inhibition below 20% gives yes (1), anything at or above gives no (0).

Some solved cases for reference:
-- ask API: query returns whether the compound falls strictly under 20% in Inhibition. Query: CCC(CO)NCC(O)Cn1c2ccc(Cl)cc2c2cc(Cl)ccc21 (centres undefined)
-- reply yes (1)

-- ask API: query returns whether the compound falls strictly under 20% in Inhibition. Query: Cl.O=C(Nc1ccc2nccc(N3CCN4CCC[C@H]4C3)c2c1)c1ccc(Cl)c(Cl)c1
-- reply yes (1)

-- ask API: query returns whether the compound falls strictly under 20% in Inhibition. Query: Cc1cccc2nc(-c3cccc(-c4ccc(CNCc5ccc(S(C)(=O)=O)cc5)cc4)c3)[nH]c12.O=C(O)C(F)(F)F
-- reply yes (1)

-- ask API: query returns whether the compound falls strictly under 20% in Inhibition. Query: COc1cc2ncnc(Nc3ccc(OCc4ccccc4Br)c(Cl)c3)c2cc1OC.Cl
-- reply no (0)

-- ask API: query returns whether the compound falls strictly under 20% in Inhibition. Query: NCCCN(Cc1ccc(Cl)c(Cl)c1)C(=O)Nc1ccc(Cl)c(Cl)c1
-- reply no (0)

-- ask API: query returns whether the compound falls strictly under 20% in Inhibition. Query: COc1cccc(OC2CCN(C(=O)c3cc(C(C)(C)C)nn3Cc3ccccc3)CC2)c1
-- reply yes (1)

More entries:
-- ask API: query returns whether the compound falls strictly under 20% in Inhibition. Query: Cc1cccc2nc(-c3ccc(-c4ccc(CN5CCN(CCO)CC5)cc4)s3)[nH]c12.O=C(O)C(F)(F)F
-- reply no (0)

-- ask API: query returns whether the compound falls strictly under 20% in Inhibition. Query: O=C(C=Cc1ccc(Cl)c(Cl)c1)NCCCCCN1CCC(CCCNC(=O)/C=C/c2ccccc2)CC1
-- reply no (0)

-- ask API: query returns whether the compound falls strictly under 20% in Inhibition. Query: Cc1ccc(C(c2nnnn2C2CCCC2)N(Cc2ccco2)Cc2ccccc2Cl)cc1 (centres undefined)
-- reply yes (1)

-- ask API: query returns whether the compound falls strictly under 20% in Inhibition. Query: COc1ccc2c(c1)CCCC2NCCCCNC(=O)c1ccc(NC(=O)c2ccc(Cl)cc2)cc1 (centres undefined)
-- reply no (0)

-- ask API: query returns whether the compound falls strictly under 20% in Inhibition. Query: Oc1cc(Nc2ccnc3cc(-c4cccc(CN5CCOCC5)c4)ccc23)c(F)cc1Cl
-- reply yes (1)

-- ask API: query returns whether the compound falls strictly under 20% in Inhibition. Query: CC(=O)Nc1ccc2[nH]cc(C3CCN(CCC4CCN(C(=O)/C=C/c5ccc(Cl)c(Cl)c5)CC4)CC3)c2n1
-- reply yes (1)

-- ask API: query returns whether the compound falls strictly under 20% in Inhibition. Query: COc1ccc(CNCc2ccc(-c3ccc(-c4nc5cccc(C)c5[nH]4)s3)cc2)cc1.O=C(O)C(F)(F)F
-- reply no (0)

-- ask API: query returns whether the compound falls strictly under 20% in Inhibition. Query: O=C(O)C(F)(F)F.OCC1CCN(Cc2ccc(-c3ccc(-c4nc5cc(C(F)(F)F)ccc5[nH]4)s3)cc2)CC1
-- reply no (0)

-- ask API: query returns whether the compound falls strictly under 20% in Inhibition. Query: COc1cccc(C2=CC(c3ccccc3)n3ncc(C(=O)Nc4ccc(Cl)cc4)c3N2)c1 (centres undefined)
-- reply yes (1)

-- ask API: query returns whether the compound falls strictly under 20% in Inhibition. Query: Fc1ccc2[nH]c3c(NCCN4CCCCC4)ncnc3c2c1
-- reply no (0)

-- ask API: query returns whether the compound falls strictly under 20% in Inhibition. Query: CCc1ccc(CN2CCC(CNC(=O)c3cc(-c4cccc(C(F)(F)F)c4)cs3)C2)cc1.O=C(O)C(F)(F)F (centres undefined)
-- reply no (0)

-- ask API: query returns whether the compound falls strictly under 20% in Inhibition. Query: COc1ccc2nccc([C@@H](O)CN3CCC(NC(=O)/C=C/c4c[nH]c5c(C)cccc45)CC3)c2c1
-- reply no (0)

-- ask API: query returns whether the compound falls strictly under 20% in Inhibition. Query: Cc1ccc(CCNCC(O)c2cccc(C(F)(F)F)c2)cc1.Cl (centres undefined)
-- reply yes (1)

###

Tested on: Plasmodium falciparum
experimentNotes: GSK_TCMDC: Inhibition of Plasmodium falciparum Dd2 in whole red blood cells, using parasite LDH activity as an index of growth. Test compounds present at 2uM
Assay type: functional
Measured Inhibition, listed per entry.
Report the value in % with no unit label.

Below, 6 compounds whose answers are already recorded.
-- ask State, for Plasmodium falciparum, measured Inhibition of the compound listed here: O=C(NCCCCN1CCC(c2ccc3c(c2OCc2ccncc2)CCCC3)CC1)c1ccc(-c2ccc(C(F)(F)F)cc2)cc1
-- reply 92

-- ask State, for Plasmodium falciparum, measured Inhibition of the compound listed here: CCNS(=O)(=O)c1ccc(Oc2ccc([N+](=O)[O-])cc2)cc1
-- reply 85

-- ask State, for Plasmodium falciparum, measured Inhibition of the compound listed here: Cc1c(C(=O)N2CCCC(C(F)(F)F)C2)sc2cccc(F)c12 (centres undefined)
-- reply 89

-- ask State, for Plasmodium falciparum, measured Inhibition of the compound listed here: COc1ccccc1/C=C/C(=O)N(C)C1CCN(CCCCCNC(=O)/C=C/c2ccc(Cl)c(Cl)c2)C1 (centres undefined)
-- reply 14

-- ask State, for Plasmodium falciparum, measured Inhibition of the compound listed here: C(=N\Nc1nccc2sc(-c3ccccc3)cc12)/c1cccnc1
-- reply 10

-- ask State, for Plasmodium falciparum, measured Inhibition of the compound listed here: COc1cc(NC(=O)c2sc(-c3ccc(Cl)cc3)cc2NC(=O)CN2CC[C@@H](O)C2)ccc1OCCN1CCCC1
-- reply 79

More entries:
-- ask State, for Plasmodium falciparum, measured Inhibition of the compound listed here: CCc1ccc(N2C(=O)C3C(Cc4ccc(OC(C)(C)C)cc4)NC4(C(=O)N(Cc5ccccc5)c5ccc(F)cc54)C3C2=O)cc1 (centres undefined)
-- reply 49

-- ask State, for Plasmodium falciparum, measured Inhibition of the compound listed here: c1cn(CCCNc2ncc(-c3ccsc3)c(-c3nccs3)n2)cn1
-- reply 51

-- ask State, for Plasmodium falciparum, measured Inhibition of the compound listed here: COc1cc2nc(N3CCC(CNC(=O)c4ccc(-c5ccc(-c6noc(C)n6)cc5C)cc4)CC3)nc(N)c2cc1OC
-- reply 99

###

Measured Inhibition, listed per entry.
Tested on: HepG2
experimentNotes: GSK_TCMDC: Percent inhibition of human HepG2 cell line. Test compounds present at 10uM.
Type: functional
Report the value in % with no unit label.

Below, 4 molecules whose answers are already recorded.
-- ask Provide Inhibition value for the following molecule: CN(C)CCNCc1cccc(-c2ccc3c(Nc4cc(O)c(Cl)cc4F)ccnc3c2)c1
-- reply 6

-- ask Provide Inhibition value for the following molecule: COC(=O)c1ccc(CN2CCC(N(Cc3cccc(Oc4ccccc4)c3)S(=O)(=O)c3ccc(NC(C)=O)cc3)CC2)cc1
-- reply 0

-- ask Provide Inhibition value for the following molecule: O=C(NCCN1CCN(S(=O)(=O)c2ccc(OC3CCNCC3)c(Br)c2)CC1)c1ccc(Cl)c(Cl)c1.O=C(O)C(F)(F)F
-- reply 1

-- ask Provide Inhibition value for the following molecule: Cc1c(C2CCN(CCCCNC(=O)c3ccc(-c4ccc(C#N)cc4)cc3)CC2)c2ccccc2n1CCO
-- reply 28

More entries:
-- ask Provide Inhibition value for the following molecule: Cl.O=[N+]([O-])c1cccc(-c2nc3cc(C4=NC5CCCCC5N4)ccc3[nH]2)c1 (stereo not drawn)
-- reply 4

-- ask Provide Inhibition value for the following molecule: CC(C)(C)OC(=O)N1CCN(c2ccccc2NC(=O)c2cccc(C(F)(F)F)c2Oc2ccc(F)cc2)CC1
-- reply 3

-- ask Provide Inhibition value for the following molecule: Cc1ccc(Nc2nc3cc(N(C)c4ccnc(Nc5cccc(CCS(C)(=O)=O)c5)n4)ccc3n2C)cc1.O=C(O)C(F)(F)F
-- reply 78

-- ask Provide Inhibition value for the following molecule: CN(C)CCCNc1ncnc2c1[nH]c1ccc(Br)cc12
-- reply 3

###

System: HepG2
experimentNotes: GSK_TCMDC: Percent inhibition of human HepG2 cell line. Test compounds present at 10uM.
Assay type: functional
Measured Inhibition, listed per entry.

Below, 5 compounds whose answers are already recorded.
-- ask Provide Inhibition value for the following compound: COc1ccc2nccc([C@H](O)CN3CCC(NCc4cc(C)c5c(c4)OCCO5)CC3)c2n1.Cl
-- reply 12%

-- ask Provide Inhibition value for the following compound: FC(F)c1nc2ccccc2n1-c1nc(N2CCOCC2)nc(N2CCOCC2)n1
-- reply 47%

-- ask Provide Inhibition value for the following compound: Cc1nnc(Sc2ncnc3scc(-c4ccc(F)cc4)c23)s1
-- reply 13%

-- ask Provide Inhibition value for the following compound: CC(=O)Nc1ccc(NC(=O)c2cc(-c3cc(Cl)ccc3O)n[nH]2)cc1
-- reply 1%

-- ask Provide Inhibition value for the following compound: N#Cc1ccc2c(c1)CN(C1CCC(NC(=O)C3=Cc4cc(Cl)ccc4OC3)CC1)CCC2 (stereo not given)
-- reply 0%

More entries:
-- ask Provide Inhibition value for the following compound: COc1ccc(C=NNc2ccnc3cc(F)c(C)cc23)c2ccccc12
-- reply 0%

-- ask Provide Inhibition value for the following compound: COC(=O)c1ccc(N2CCN(CCCCNC(=O)c3ccc(NC(=O)c4ccc(Cl)cc4)cc3)CC2)c(OC)c1
-- reply 11%

-- ask Provide Inhibition value for the following compound: Cc1cccc2nc(-c3ccc(-c4cccc(CN5CCN(c6ccncc6)CC5)c4)cc3)[nH]c12.O=C(O)C(F)(F)F
-- reply 50%

-- ask Provide Inhibition value for the following compound: Cc1cc(NC2CCN(CC3CCCCC3)C2)nc(Nc2ccc(Cl)cc2)n1 (stereo not given)
-- reply 26%

-- ask Provide Inhibition value for the following compound: Nc1nc(N)c2c(Cl)c(N3CCOCC3)ccc2n1
-- reply 65%
